Target: T1, FZD6 CRD (Homo sapiens, UniProt O60353)
T1 construct: S20-P146; GPI anchor signal (C); expressed in transfected cells; host or cells: CHO cells, lentiviral pLenti-puro
T1 sequence (O60353 20-146): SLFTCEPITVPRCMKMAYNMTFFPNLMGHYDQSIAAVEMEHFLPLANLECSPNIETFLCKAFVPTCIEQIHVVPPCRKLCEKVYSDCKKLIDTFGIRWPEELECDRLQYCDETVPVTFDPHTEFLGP
Assay: Immunofluorescence of anti-FZD5 Fab binding to CHO cells overexpressing Frizzled CRD
Parameters: key: −: no binding; +: very weak binder; ++: weak binder; +++: good binder; ++++: very good binder
Assay Readout: Immunofluorescence binding, Frizzled CRD overexpressed on CHO cells: FZD6

Fab-2900: anti-FZD5 Fab with antibody variable region Fv-2900; CDR SEQ ID NOs: 35, 36, 39, 78, 115, 153 (antibody, V domains shown) VH: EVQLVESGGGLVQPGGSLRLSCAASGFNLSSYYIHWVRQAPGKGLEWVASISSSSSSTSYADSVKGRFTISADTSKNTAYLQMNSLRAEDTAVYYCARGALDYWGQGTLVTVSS VL: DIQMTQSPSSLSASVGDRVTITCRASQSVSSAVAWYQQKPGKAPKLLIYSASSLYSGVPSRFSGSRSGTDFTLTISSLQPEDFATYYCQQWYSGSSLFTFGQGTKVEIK | −
